# Measured On: PIK3CA (human) (UniProt P42336)
# Sequence (P42336 whole entry, looked up): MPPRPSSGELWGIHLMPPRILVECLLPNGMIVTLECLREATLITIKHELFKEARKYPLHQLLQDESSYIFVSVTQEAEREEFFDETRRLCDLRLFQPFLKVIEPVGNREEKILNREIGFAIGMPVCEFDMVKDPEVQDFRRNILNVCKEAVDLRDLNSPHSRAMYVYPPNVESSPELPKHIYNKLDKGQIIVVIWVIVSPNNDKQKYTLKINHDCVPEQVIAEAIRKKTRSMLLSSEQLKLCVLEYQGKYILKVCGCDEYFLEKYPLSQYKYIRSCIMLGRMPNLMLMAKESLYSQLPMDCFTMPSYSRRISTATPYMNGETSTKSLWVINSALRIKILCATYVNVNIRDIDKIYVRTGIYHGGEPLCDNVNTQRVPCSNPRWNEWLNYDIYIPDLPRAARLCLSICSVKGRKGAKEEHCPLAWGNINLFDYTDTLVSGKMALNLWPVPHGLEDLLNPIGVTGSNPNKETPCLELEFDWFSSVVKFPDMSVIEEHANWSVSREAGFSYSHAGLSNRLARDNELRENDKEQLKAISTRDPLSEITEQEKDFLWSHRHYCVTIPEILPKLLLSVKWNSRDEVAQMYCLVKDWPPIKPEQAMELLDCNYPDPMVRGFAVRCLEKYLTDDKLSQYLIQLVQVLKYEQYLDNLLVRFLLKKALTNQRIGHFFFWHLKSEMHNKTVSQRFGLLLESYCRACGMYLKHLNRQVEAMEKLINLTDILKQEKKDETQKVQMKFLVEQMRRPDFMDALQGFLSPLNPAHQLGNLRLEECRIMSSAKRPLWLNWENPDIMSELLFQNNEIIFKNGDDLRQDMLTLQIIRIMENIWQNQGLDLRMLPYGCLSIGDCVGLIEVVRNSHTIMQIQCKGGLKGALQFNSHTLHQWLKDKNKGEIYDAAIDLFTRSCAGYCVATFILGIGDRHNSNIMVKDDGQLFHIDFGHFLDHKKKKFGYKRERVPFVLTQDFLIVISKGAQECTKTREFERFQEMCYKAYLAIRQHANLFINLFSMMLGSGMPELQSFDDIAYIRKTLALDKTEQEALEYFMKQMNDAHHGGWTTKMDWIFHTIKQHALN
# Assay Remarks: Assessment of PIK3CA Kinase Activity Using Homogenous Solution Phase Assay
pIC50: −log10 of the molar value.
Experimental Endpoint: pIC50

-- ask Requested field: pIC50. Item: Oc1cccc(-c2cc(Nc3ccc4c(c3)CCC4)nc(N3CCOCC3)n2)c1
-- reply > 4.70

-- ask Requested field: pIC50. Item: CCOc1ccc(NC(C)=O)cc1Nc1cc(-c2cccc(O)c2)nc(N2CCOCC2)n1
-- reply > 4.70
